Below, each of the compounds is paired with its reported inhibition at 200 µM value.
# tgt: human LAT1 (Homo sapiens)
# assay.remarks: cis-inhibition assay: inhibition of [3H]-gabapentin uptake into HEK-hLAT1 cells
# Format: cell-based
# test.settings: read-out: % Inhibition of [3H]-gabapentin uptake
Could you give me the number in %? Just the number is fine.

compound | tgt | recorded.result
N[C@@H](Cc1ccc(O)cc1)C(=O)O [Compound 1b, tyrosine] | human LAT1 (Homo sapiens) | 68
N[C@@H](Cc1ccccc1)C(=O)O [Compound 1a, phenylalanine, reference compound] | human LAT1 (Homo sapiens) | 85
N[C@@H](Cc1c[nH]c2ccccc12)C(=O)O [Compound 1d, tryptophan, reference compound] | human LAT1 (Homo sapiens) | 79

Please examine the following record next.
Prompt line: Tell me the measured inhibition at 200 µM of N=C(N)NCCC[C@H](N)C(=O)O [Compound 1i, reference compound] , please.
Response line: 49

---

# tgt: human LAT1 (Homo sapiens, UniProt Q01650)
# Sequence (Q01650 whole entry): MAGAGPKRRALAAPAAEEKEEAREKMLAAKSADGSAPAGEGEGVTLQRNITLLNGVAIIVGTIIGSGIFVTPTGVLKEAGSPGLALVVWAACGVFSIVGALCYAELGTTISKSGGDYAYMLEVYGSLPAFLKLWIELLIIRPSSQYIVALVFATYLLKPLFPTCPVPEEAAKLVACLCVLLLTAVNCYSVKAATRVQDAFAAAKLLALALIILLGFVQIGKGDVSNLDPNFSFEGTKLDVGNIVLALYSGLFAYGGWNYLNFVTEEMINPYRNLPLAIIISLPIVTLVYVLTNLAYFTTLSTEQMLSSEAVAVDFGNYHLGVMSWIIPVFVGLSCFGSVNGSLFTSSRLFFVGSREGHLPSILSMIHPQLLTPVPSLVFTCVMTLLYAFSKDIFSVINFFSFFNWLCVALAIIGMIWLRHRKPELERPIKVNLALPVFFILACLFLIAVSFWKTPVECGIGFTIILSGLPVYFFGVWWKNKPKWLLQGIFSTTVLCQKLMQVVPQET
# Sequence (P08195 102-630 partner): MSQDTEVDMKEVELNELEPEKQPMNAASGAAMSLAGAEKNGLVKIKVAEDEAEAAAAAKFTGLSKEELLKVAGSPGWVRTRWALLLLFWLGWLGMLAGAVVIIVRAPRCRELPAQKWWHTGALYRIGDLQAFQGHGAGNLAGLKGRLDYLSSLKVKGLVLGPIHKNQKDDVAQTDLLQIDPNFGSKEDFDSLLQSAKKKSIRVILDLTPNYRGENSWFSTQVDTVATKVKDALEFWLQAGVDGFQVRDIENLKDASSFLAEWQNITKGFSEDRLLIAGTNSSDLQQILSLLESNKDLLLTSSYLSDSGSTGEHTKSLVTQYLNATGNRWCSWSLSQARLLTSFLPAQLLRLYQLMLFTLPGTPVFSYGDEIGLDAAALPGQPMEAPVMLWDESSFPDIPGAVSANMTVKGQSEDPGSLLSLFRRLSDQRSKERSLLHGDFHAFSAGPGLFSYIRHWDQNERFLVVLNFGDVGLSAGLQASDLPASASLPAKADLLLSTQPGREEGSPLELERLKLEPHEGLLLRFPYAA
# Assay type: cell-based
# test.settings: compound at 200 μM; pre-loaded HEK-hLAT1 cells; at least triplicate
Below, each of the molecules is paired with its reported Efflux Rate of [3H]-gabapentin value.
Could you give me the number in fmol/min? Just the number is fine.

Prompt line: Tell me the measured Efflux Rate of [3H]-gabapentin of N=C(N)NCCC[C@H](N)C(=O)O [Compound 1i, reference compound] , please.
Response line: 0.75

Prompt line: Tell me the measured Efflux Rate of [3H]-gabapentin of CC[C@H](C)[C@H](N)C(=O)O [Compound 1f, isoleucine, reference compound] , please.
Response line: 2.5

Prompt line: Tell me the measured Efflux Rate of [3H]-gabapentin of CS(=O)(=O)NC(=O)[C@@H](N)Cc1ccc(O)cc1 [Compound 10b] , please.
Response line: 0.63

Prompt line: Tell me the measured Efflux Rate of [3H]-gabapentin of N[C@@H](Cc1c[nH]c2ccccc12)C(=O)NO [Compound 12d] , please.
Response line: 1.0

Prompt line: Tell me the measured Efflux Rate of [3H]-gabapentin of CSCC[C@H](N)C(=O)NO.Cl [Compound 12g] , please.
Response line: 1.1

Prompt line: Tell me the measured Efflux Rate of [3H]-gabapentin of N[C@@H](Cc1ccccc1)c1nnn[nH]1 , please.
Response line: 0.61

Prompt line: Tell me the measured Efflux Rate of [3H]-gabapentin of N[C@@H](Cc1ccc(O)cc1)C(=O)NO [Compound 12b] , please.
Response line: 1.0

Prompt line: Tell me the measured Efflux Rate of [3H]-gabapentin of NCC(=O)NO [Compound 12h] , please.
Response line: 0.70

Prompt line: Tell me the measured Efflux Rate of [3H]-gabapentin of N[C@@H](Cc1c[nH]c2ccccc12)C(=O)O [Compound 1d, tryptophan, reference compound] , please.
Response line: 1.6

Prompt line: Tell me the measured Efflux Rate of [3H]-gabapentin of CSCC[C@H](N)C(=O)O [Compound 1g, methionine, reference compound] , please.
Response line: 2.4

Prompt line: Tell me the measured Efflux Rate of [3H]-gabapentin of CS(=O)(=O)NC(=O)[C@@H](N)Cc1ccccc1 [Compound 10a] , please.
Response line: 0.61
